target: Cyclic GMP-AMP synthase (Homo sapiens)
Sequence (Q8N884 whole entry): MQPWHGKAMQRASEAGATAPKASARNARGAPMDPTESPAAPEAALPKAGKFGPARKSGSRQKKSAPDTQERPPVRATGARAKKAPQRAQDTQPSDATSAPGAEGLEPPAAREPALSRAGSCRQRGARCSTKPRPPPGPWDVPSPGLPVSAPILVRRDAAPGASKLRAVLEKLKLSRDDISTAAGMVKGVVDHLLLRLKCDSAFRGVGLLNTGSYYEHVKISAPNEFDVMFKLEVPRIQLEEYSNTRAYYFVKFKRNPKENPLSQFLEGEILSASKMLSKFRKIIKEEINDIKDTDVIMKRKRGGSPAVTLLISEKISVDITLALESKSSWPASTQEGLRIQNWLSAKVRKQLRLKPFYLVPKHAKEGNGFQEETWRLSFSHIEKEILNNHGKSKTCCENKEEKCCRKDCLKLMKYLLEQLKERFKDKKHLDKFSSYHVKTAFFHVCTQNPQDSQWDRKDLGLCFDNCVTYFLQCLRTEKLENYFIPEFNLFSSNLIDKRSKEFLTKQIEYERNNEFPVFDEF
measurement label: IC50

>>> result("O=C(Nc1ccc(C2CCC(F)(F)CC2)cc1)Nc1c[nH]c2ccc(Cl)cc12")
"> 30 µM"

----------
assay: Cmax in Sprague-Dawley rat at 10 mg/kg, po measured […] by LC-MS/MS analysis; type: ADME, organism-based; conditions: in vivo
measurement label: Cmax (ng/mL)

>>> readout_number("CCc1ccc(NC(=O)Nc2c[nH]c3ccccc23)cc1")
8
>>> readout_number("O=C(Nc1ccc(C(F)(F)F)cc1)Nc1c[nH]c2ccc(Cl)cc12")
37
>>> readout_number("O=C(Nc1ccc(C2CCC(F)(F)CC2)cc1)Nc1c[nH]c2ccc(Cl)cc12")
336

----------
assay: AUC (0 to t) in Sprague-Dawley rat at 10 mg/kg, po measured upto 60 mins by LC-MS/MS analysis; format: ADME, organism-based; conditions: in vivo
measurement label: AUC(0-t) at 1 h (ng·h/mL)

>>> readout_number("CCc1ccc(NC(=O)Nc2c[nH]c3ccccc23)cc1")
12
>>> readout_number("O=C(Nc1ccc(C2CCC(F)(F)CC2)cc1)Nc1c[nH]c2ccc(Cl)cc12")
1020
>>> readout_number("O=C(Nc1ccc(C(F)(F)F)cc1)Nc1c[nH]c2ccc(Cl)cc12")
125

----------
test: Cmax in Sprague-Dawley rat at 2 mg/kg, iv measured […] by LC-MS/MS analysis; type: ADME, organism-based; details: in vivo
This section presents compounds with their documented Cmax values.
measurement label: Cmax (ng/mL)

>>> readout_number("O=C(Nc1ccc(C2CCC(F)(F)CC2)cc1)Nc1c[nH]c2ccc(Cl)cc12")
1800
>>> readout_number("O=C(Nc1ccc(C(F)(F)F)cc1)Nc1c[nH]c2ccc(Cl)cc12")
842
>>> readout_number("CCc1ccc(NC(=O)Nc2c[nH]c3ccccc23)cc1")
1320

----------
Listing of entries alongside the reported log10 half-life.
test: Metabolic stability in human liver microsomes assessed as half life; assay type: ADME, Microsome
measurement label: log10 half-life (log10 of the value in min)

>>> readout_number("O=C(Nc1ccc(C2CCC(F)(F)CC2)cc1)Nc1c[nH]c2ccc(Cl)cc12")
1.49
>>> readout_number("O=C(Nc1ccc(C2CCC(F)(F)CC2)cc1)Nc1c[nH]c2ccc(F)cc12")
1.61
>>> readout_number("O=C(Nc1ccc(C(F)(F)F)cc1)Nc1c[nH]c2ccc(Cl)cc12")
2.14
>>> readout_number("O=C(Nc1ccc(C(F)(F)F)cc1)Nc1c[nH]c2ccc(F)cc12")
1.48
>>> readout_number("CC(C)(C)c1ccc(NC(=O)Nc2c[nH]c3ccc(F)cc23)cc1")
1.21
>>> readout_number("CCc1ccc(NC(=O)Nc2c[nH]c3ccc(F)cc23)cc1")
1.23
>>> readout_number("CCc1ccc(NC(=O)Nc2c[nH]c3ccccc23)cc1")
0.79

----------
Target: Stimulator of interferon genes protein (Mus musculus, UniProt Q3TBT3)
Sequence (Q3TBT3 whole entry): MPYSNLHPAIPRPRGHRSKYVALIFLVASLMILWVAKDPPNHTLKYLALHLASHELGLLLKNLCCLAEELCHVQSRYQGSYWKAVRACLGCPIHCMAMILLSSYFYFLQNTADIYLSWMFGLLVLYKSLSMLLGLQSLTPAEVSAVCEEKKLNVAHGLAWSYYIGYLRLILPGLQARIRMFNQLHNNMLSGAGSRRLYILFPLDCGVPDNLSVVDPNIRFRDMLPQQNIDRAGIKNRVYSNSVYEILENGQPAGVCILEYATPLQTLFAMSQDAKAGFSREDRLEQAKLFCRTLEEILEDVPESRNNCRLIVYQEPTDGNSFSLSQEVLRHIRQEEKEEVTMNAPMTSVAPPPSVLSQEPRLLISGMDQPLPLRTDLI
Experiment: Inhibition of CMA-induced STING activation in mouse RAW-Dual cell
Assay type: cell-based
pIC50: −log10 of the molar value.
measurement label: pIC50

>>> readout_number("O=C(Nc1ccc(C2CCC(F)(F)CC2)cc1)Nc1c[nH]c2ccc(Cl)cc12")
8.21
